System: contraction of the aorta strip caused by serotonin (5--HT)
Test: Vasodilating action: inhibition of contraction of rabbit aorta strip caused by serotonin (5-HT)
Type: cell-based
Settings: Oryctolagus cuniculus, compound 10^-5 M, 5-HT 10^-6 M, 15 min pretreatment, read-out: Inhibitory percent against contraction, 5-HT
Procedure: A spiral strip of aorta of a rabbit (2-3 mm width, about 3 cm length) was allowed to equilibrate by hanging under 2 g force in a Krebs-Henseleit solution. The solution was saturated with a mixture gas of 97% O2 --3% CO2 which was warmed to 37° C. […]
Entries annotated with measured inhibition at 10 µM

# compound, measurement.units, inhibition at 10 µM
rows = [
    ("CCN1C(=O)C(CCN2CCN(c3ccccc3OC)CC2)Sc2ccccc21 (stereo not shown) [Example 36]", "%", 100),
    ("Cc1cc(C)c2c(c1)SC(CCCN1CCN(c3ccc(F)cc3)CC1)C(=O)N2 (stereo not shown) [Example 11]", "%", 67),
    ("Cc1cccc2c1NC(=O)C(CCCN1CCN(c3ccccc3)CC1)S2 (stereo not shown) [Example 13]", "%", 92),
    ("COc1ccccc1N1CCN(CCC2Sc3ccccc3NC2=O)CC1 (stereo not shown) [Example 28]", "%", 100),
    ("Cc1cccc2c1NC(=O)C(CCCN1CCN(c3ccc(Cl)cc3)CC1)S2 (stereo not shown) [Example 15]", "%", 20),
    ("COc1ccc2c(c1)SC(CCCN1CCN(c3ccccc3)CC1)C(=O)N2 (stereo not shown) [Example 5]", "%", 100),
    ("COc1cccc2c1NC(=O)C(CCCN1CCN(c3ccccc3)CC1)S2 (stereo not shown) [Example 24]", "%", 66),
    ("COc1ccc2c(c1)SC(CCN1CCN(c3ccccc3)CC1)C(=O)N2 (stereo not shown) [Example 29]", "%", 73),
    ("CN1C(=O)C(CCN2CCN(c3ccc(F)cc3)CC2)Sc2ccccc21 (stereo not shown) [Example 30]", "%", 100),
    ("COc1ccccc1N1CCN(CCC2Sc3ccccc3N(C)C2=O)CC1 (stereo not shown) [Example 32]", "%", 88),
    ("COc1ccccc1N1CCN(CCCC2Sc3cc(C)cc(C)c3NC2=O)CC1 (stereo not shown) [Example 22]", "%", 15),
    ("O=C1Nc2ccccc2SC1CCCN1CCN(c2ccccc2)CC1 (stereo not shown) [Example 2]", "%", 97),
    ("Cc1cccc2c1NC(=O)C(CCCN1CCN(c3ccc(F)cc3)CC1)S2 (stereo not shown) [Example 12]", "%", 96),
    ("COc1ccccc1N1CCN(CCCC2Sc3cc(C)ccc3NC2=O)CC1 (stereo not shown) [Example 21]", "%", 56),
    ("O=C1Nc2ccccc2SC1CCN1CCN(c2ccccc2)CC1 (stereo not shown) [Example 27]", "%", 100),
    ("COc1ccc2c(c1)SC(CCCN1CCN(c3ccccc3OC)CC1)C(=O)N2 (stereo not shown) [Example 6]", "%", 91),
    ("COc1ccccc1N1CCN(CCCC2Sc3cccc(C)c3NC2=O)CC1 (stereo not shown) [Example 16]", "%", 70),
    ("COc1ccccc1N1CCN(CCCC2Sc3ccc(Cl)cc3NC2=O)CC1 (stereo not shown) [Example 8]", "%", 18),
    ("COc1ccccc1N1CCN(CCCC2Sc3cccc(OC)c3NC2=O)CC1 (stereo not shown) [Example 4]", "%", 12),
    ("CN1C(=O)C(CCN2CCN(c3ccccc3)CC2)Sc2ccccc21 (stereo not shown) [Example 31]", "%", 62),
    ("COc1ccccc1N1CCN(CCCC2Sc3cc(Cl)ccc3NC2=O)CC1 (stereo not shown) [Example 9]", "%", 44),
    ("COc1ccccc1N1CCN(CCCC2Sc3ccccc3NC2=O)CC1 (stereo not shown) [Example 25]", "%", 84),
]
